target: ATPase family AAA domain-containing protein 2 (Homo sapiens, UniProt Q6PL18); assay: Inhibition of His-6 tagged recombinant human ATAD2 (981 to 1108 residues) expressed in Escherichia coli BL21 (DE3) rosetta cells by HTRF assay
Sequence (Q6PL18 whole entry, the tested form may be a part): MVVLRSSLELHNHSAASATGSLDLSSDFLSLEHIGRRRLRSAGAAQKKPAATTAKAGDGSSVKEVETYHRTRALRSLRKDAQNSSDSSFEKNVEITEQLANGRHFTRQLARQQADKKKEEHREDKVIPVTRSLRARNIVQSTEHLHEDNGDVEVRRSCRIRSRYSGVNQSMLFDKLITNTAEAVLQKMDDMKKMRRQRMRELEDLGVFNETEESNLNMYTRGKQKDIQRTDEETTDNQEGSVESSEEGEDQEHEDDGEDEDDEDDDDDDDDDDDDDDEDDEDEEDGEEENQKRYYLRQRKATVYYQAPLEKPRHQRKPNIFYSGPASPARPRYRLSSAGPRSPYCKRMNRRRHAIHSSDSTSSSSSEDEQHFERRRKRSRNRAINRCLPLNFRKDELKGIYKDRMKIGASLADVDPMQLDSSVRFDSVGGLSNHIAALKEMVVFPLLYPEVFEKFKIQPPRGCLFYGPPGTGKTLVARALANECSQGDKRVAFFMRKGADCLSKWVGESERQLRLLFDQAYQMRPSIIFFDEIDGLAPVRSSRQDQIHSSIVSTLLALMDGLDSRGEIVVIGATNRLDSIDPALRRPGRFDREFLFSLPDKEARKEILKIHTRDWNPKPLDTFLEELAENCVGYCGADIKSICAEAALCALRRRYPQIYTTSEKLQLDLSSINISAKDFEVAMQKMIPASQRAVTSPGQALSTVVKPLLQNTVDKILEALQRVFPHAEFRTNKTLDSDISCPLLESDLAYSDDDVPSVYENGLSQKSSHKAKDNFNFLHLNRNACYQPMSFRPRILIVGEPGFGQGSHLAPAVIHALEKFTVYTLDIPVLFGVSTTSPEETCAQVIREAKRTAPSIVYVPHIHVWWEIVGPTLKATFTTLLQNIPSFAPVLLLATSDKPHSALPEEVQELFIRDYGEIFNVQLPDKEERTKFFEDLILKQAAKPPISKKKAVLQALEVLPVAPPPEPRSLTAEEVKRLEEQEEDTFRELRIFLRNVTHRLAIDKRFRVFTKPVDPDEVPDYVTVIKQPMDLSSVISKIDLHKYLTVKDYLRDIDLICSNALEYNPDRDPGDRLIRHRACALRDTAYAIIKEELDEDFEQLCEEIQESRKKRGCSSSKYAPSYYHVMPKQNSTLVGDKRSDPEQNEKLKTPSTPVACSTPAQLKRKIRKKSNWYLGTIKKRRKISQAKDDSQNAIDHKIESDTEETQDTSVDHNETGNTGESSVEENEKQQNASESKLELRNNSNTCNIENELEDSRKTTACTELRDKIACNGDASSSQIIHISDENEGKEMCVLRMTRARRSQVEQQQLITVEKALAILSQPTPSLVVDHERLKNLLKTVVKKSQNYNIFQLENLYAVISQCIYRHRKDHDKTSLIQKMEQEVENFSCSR
Reported IC50 values are given for each entry in this list.
# value in µM; strip the unit string

| STRUCTURE | TGT | VALUE REPORTED |
| --- | --- | --- |
| Cn1ccc(NCc2ccccn2)c(N)c1=O | ATPase family AAA domain-containing protein 2 (Homo sapiens, UniProt Q6PL18) | 55 |
| Cn1cccc(NCC2CCNCC2)c1=O | ATPase family AAA domain-containing protein 2 (Homo sapiens, UniProt Q6PL18) | 543 |
| CN1CCNc2c1ccn(C)c2=O | ATPase family AAA domain-containing protein 2 (Homo sapiens, UniProt Q6PL18) | 822 |

Switching to the query record.
Q) Sample Cn1cc(Br)cc(N)c1=O — what was its IC50?
A) 377
